Details: basic group
Label met when pKa is at or above 7; anything below gets not met.

{"MOLECULE": "C[n+]1c([S-])nc([O-])c2ccccc21", "CLASS": "met"}
{"MOLECULE": "[O-]c1ccnc2nccnc12", "CLASS": "met"}
{"MOLECULE": "c1ccc(-c2ccn[nH]2)[nH+]c1", "CLASS": "not met"}
{"MOLECULE": "CCCCCNCc1ccccc1O", "CLASS": "met"}
{"MOLECULE": "CCCCCN(CC(O)CC)CC(O)CC (centres undefined)", "CLASS": "met"}

Q: Tell me whether pKa is at least 7 here: c1ncc(Cc2cnc[nH]2)[nH]1
Ans: met

Q: Tell me whether pKa is at least 7 here: c1c[nH]c(Cc2nc(Cc3c[nH]cn3)c[nH]2)n1
Ans: met

Q: Tell me whether pKa is at least 7 here: CNC(=O)/C=C(\c1ccc2nc(N)n(C3CCCC3)c2c1)c1ccccc1F
Ans: not met

* * *

Conditions: acidic group
Output: class label from pKa. Mapping: A (below 6), B (6 to below 10), C (10 or more)

Study these solved cases before continuing.
{"COMPOUND": "O=C(O)C(c1ccc(-c2ccccc2)cc1)C(O)c1ccccc1 (centres undefined)", "CLASS": "A"}
{"COMPOUND": "CN(C)c1ncnc2[nH]ncc12", "CLASS": "C"}
{"COMPOUND": "COc1cccc(C=O)c1O", "CLASS": "B"}
{"COMPOUND": "Cc1ccc(/C=C/C(=O)C(=O)O)cc1", "CLASS": "A"}
{"COMPOUND": "Cc1c(C)c(O)c(C)c(C)c1O", "CLASS": "C"}

Q: Dear colleague, I would appreciate it if you could identify the bin for Cc1cc(O)n[nH]1 and reply at your convenience.
Ans: C

Q: Dear colleague, I would appreciate it if you could identify the bin for Cc1cc(O)ccc1/N=N/c1ccc2c(c1)Cc1ccccc1-2 and reply at your convenience.
Ans: C

Q: Dear colleague, I would appreciate it if you could identify the bin for Cc1coc(C)c1C(=O)O and reply at your convenience.
Ans: A

Q: Dear colleague, I would appreciate it if you could identify the bin for Cc1nc2c(N)cccc2[nH]1 and reply at your convenience.
Ans: C

Q: Dear colleague, I would appreciate it if you could identify the bin for CC[NH+](CC)Cc1c(O)cccc1Cl and reply at your convenience.
Ans: B

Q: Dear colleague, I would appreciate it if you could identify the bin for Cc1cc(C[NH+](C)C)c(O)c(C[NH+](C)C)c1 and reply at your convenience.
Ans: B

* * *

Settings: acidic group
ASSAY READOUT: pKa
Numbers only.

Illustrative cases are given below, each with its answer.
{"COMPOUND": "CCCCCCCCCC(=O)O", "pKa": 4.89}
{"COMPOUND": "CCn1nnnc1NC(C)=O", "pKa": 8.38}
{"COMPOUND": "O=S(O)CCCCc1ccccc1", "pKa": 2.23}
{"COMPOUND": "O=C(O)CCBr", "pKa": 3.86}
{"COMPOUND": "CC1(C)CC(=O)C2=C(C1)NC1=C(C2)C(=O)CC(C)(C)C1", "pKa": 3.6}
{"COMPOUND": "O=C1Oc2ccccc2C(=O)C1CC1C(=O)Oc2ccccc2C1=O (centres undefined)", "pKa": 5.5}
{"COMPOUND": "Cc1ccc(S(=O)(=O)Nc2ccccc2)cc1", "pKa": 8.46}
{"COMPOUND": "CCOC(=O)C(Cc1cccc(C)c1)C(C)=O (centres undefined)", "pKa": 11.9}

Below are 2 compounds. Give each one its pKa.
1. Cc1ccc([Se](=O)O)cc1
2. O=C([O-])CS

Ans:
4.88
10.2
